Cited source for all entries: ChEMBL document CHEMBL3612053

- ASSAY_REMARKS: Half life in serum (unknown origin)
- Type: ADME, cell-free
Consider the following compounds and their measured half-life readings.
MEASUREMENT_NAME: half-life

# ENTRY_SMILES, MEASUREMENT_NAME, REPORTED_RESULT
records = [
    ("CC(=O)Oc1ccc(NC(=O)c2ccc(Cl)cc2Cl)cc1C(C)(C)C", "half-life", "> 60 min"),
    ("CC(C)(C)c1cc(OC(=O)c2ccccc2)ccc1O", "half-life", "< 15 min"),
    ("CC(C)(C)c1cc(OC(=O)c2ccc([N+](=O)[O-])cc2Cl)ccc1O", "half-life", "< 15 min"),
    ("CC(C)c1cc(NC(=O)c2ccc(Cl)cc2Cl)ccc1O", "half-life", "> 60 min"),
    ("Cc1cc(NC(=O)c2ccc(Cl)cc2Cl)ccc1O", "half-life", "> 60 min"),
    ("CC(C)(C)c1cc(NC(=O)c2c(Cl)cc(NC3CCCC3)cc2Cl)ccc1O", "half-life", "> 60 min"),
    ("CC(C)(C)c1cc(NC(=O)c2c(Cl)cc(NCc3cccs3)cc2Cl)ccc1O", "half-life", "> 60 min"),
]

* * *

- TARGET_ENTITY: Bile acid receptor (Homo sapiens, UniProt Q96RI1)
- ASSAY_REMARKS: Antagonist activity at GST-tagged FXR LBD (unknown origin) assessed as inhibition of CDCA-induced Bio-SRC-1 recruitment after 30 mins by HTRF assay
pIC50: −log10 of the molar value.
MEASUREMENT_NAME: pIC50

# ENTRY_SMILES, MEASUREMENT_NAME, RESULT_MODIFIER, REPORTED_RESULT
data = [
    ("CC(C)(C)c1cc(OC(=O)Cc2ccccc2)ccc1O", "pIC50", "<", 4.00),
    ("CC(C)(C)c1cc(NC(=O)c2c(Cl)cc(NCc3cccnc3)cc2Cl)ccc1O", "pIC50", "=", 5.44),
    ("CC(C)(C)c1cc(OC(=O)c2ccc(N)cc2)ccc1O", "pIC50", "=", 4.47),
    ("CC(C)(C)c1cc(OC(=O)c2ccc(Cl)cc2)ccc1O", "pIC50", "<", 4.00),
    ("CC(C)(C)c1cc(NC(=O)c2ccc(Cl)cc2Cl)ccc1O", "pIC50", "=", 4.87),
    ("CN(C)c1cc(Cl)c(C(=O)N(CC2CCCCC2)c2ccc(O)c(C(C)(C)C)c2)c(Cl)c1", "pIC50", "<", 4.00),
]

* * *

Consider the following compounds and their measured IC50 readings.
- TARGET_ENTITY: Bile acid receptor (Homo sapiens, UniProt Q96RI1)
- Sequence (Q96RI1 whole entry): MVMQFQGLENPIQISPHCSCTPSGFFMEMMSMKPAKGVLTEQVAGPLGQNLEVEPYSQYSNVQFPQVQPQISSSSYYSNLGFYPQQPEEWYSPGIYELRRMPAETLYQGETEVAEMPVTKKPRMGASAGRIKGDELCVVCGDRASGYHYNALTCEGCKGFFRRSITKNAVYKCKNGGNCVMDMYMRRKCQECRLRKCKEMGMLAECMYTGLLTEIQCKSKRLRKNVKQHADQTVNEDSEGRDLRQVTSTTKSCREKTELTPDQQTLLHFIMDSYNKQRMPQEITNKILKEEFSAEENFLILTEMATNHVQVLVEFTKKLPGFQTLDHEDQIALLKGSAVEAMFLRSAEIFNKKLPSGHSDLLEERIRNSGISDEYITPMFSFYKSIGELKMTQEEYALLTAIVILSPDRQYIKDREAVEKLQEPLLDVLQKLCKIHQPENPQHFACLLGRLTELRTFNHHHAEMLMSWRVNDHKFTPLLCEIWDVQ
- ASSAY_REMARKS: Antagonist activity at GST-tagged FXR LBD (unknown origin) assessed as inhibition of CDCA-induced Bio-SRC-1 recruitment after 30 mins by HTRF assay

# ENTRY_SMILES, RESULT_MODIFIER, IC50 / µM
data = [
    ("CCNc1cc(Cl)c(C(=O)Nc2ccc(O)c(C(C)(C)C)c2)c(Cl)c1", "=", 28.7),
    ("CC(C)(C)c1cc(OC(=O)c2c(Cl)cc([N+](=O)[O-])cc2Cl)ccc1O", "=", 5.9),
    ("Cc1ccc(C(=O)Oc2ccc(O)c(C(C)(C)C)c2)cc1", ">", 100),
    ("CN(C)c1cc(Cl)c(C(=O)Nc2ccc(O)c(C(C)(C)C)c2)c(Cl)c1", "=", 1.4),
    ("CN(C)c1cc(Cl)c(C(=O)N(Cc2cccnc2)c2ccc(O)c(C(C)(C)C)c2)c(Cl)c1", "=", 6.3),
]

* * *

Consider the following compounds and their measured IC50 readings.
- TARGET_ENTITY: Bile acid receptor (Homo sapiens)
- Sequence (Q96RI1 whole entry): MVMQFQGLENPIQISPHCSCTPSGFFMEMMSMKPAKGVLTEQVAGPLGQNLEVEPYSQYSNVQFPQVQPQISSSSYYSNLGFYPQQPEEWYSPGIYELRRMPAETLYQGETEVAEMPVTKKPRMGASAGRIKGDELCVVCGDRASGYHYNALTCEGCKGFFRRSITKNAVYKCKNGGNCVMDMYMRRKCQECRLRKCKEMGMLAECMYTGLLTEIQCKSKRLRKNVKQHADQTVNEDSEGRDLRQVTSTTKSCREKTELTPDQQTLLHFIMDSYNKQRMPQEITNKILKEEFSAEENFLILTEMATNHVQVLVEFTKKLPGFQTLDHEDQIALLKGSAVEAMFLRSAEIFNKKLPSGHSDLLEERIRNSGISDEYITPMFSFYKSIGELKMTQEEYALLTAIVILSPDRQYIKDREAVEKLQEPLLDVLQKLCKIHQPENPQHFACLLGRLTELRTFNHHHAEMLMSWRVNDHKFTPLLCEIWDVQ
- ASSAY_REMARKS: Antagonist activity at GST-tagged FXR LBD (unknown origin) assessed as inhibition of CDCA-induced Bio-SRC-1 recruitment after 30 mins by HTRF assay
MEASUREMENT_NAME: IC50

# ENTRY_SMILES, REPORTED_RESULT
data = [
    ("CC(C)(C)c1cc(OC(=O)c2ccc(Cl)cc2Cl)ccc1O", "10.2 µM"),
    ("CC(C)(C)c1cc(OC(=O)c2ccccc2)ccc1O", "> 100 µM"),
    ("CC(=O)Oc1ccc(NC(=O)c2ccc(Cl)cc2Cl)cc1C(C)(C)C", "15.5 µM"),
    ("CN(c1cc(Cl)c(C(=O)Nc2ccc(O)c(C(C)(C)C)c2)c(Cl)c1)C1CCCCC1", "> 100 µM"),
    ("Cc1ccccc1C(=O)Oc1ccc(O)c(C(C)(C)C)c1", "> 100 µM"),
    ("COc1ccc(NC(=O)c2ccc(Cl)cc2Cl)cc1C(C)(C)C", "> 100 µM"),
]

* * *

- TARGET_ENTITY: Bile acid receptor (Homo sapiens, UniProt Q96RI1)
- ASSAY_REMARKS: Antagonist activity at GST-tagged FXR LBD (unknown origin) assessed as inhibition of CDCA-induced Bio-SRC-1 recruitment after 30 mins by HTRF assay
Consider the following molecules and their measured IC50 readings.

# ENTRY_SMILES, IC50
data = [
    ("CC(C)c1cc(NC(=O)c2ccc(Cl)cc2Cl)ccc1O", "> 100 µM"),
    ("CC(C)(C)c1cc(OC(=O)c2ccc(N)cc2Cl)ccc1O", "7.2 µM"),
    ("CC(C)(C)c1cc(NC(=O)c2c(Cl)cc(N)cc2Cl)ccc1O", "5.2 µM"),
    ("Cc1cc(NC(=O)c2ccc(Cl)cc2Cl)ccc1O", "> 100 µM"),
    ("C=CCOc1ccc(NC(=O)c2ccc(Cl)cc2Cl)cc1C(C)(C)C", "> 100 µM"),
    ("CC(C)(C)c1cc(NC(=O)c2ccc(Cl)cc2Cl)cc(C(C)(C)C)c1O", "> 100 µM"),
]

* * *

- TARGET_ENTITY: Bile acid receptor (Homo sapiens)
- Sequence (Q96RI1 whole entry): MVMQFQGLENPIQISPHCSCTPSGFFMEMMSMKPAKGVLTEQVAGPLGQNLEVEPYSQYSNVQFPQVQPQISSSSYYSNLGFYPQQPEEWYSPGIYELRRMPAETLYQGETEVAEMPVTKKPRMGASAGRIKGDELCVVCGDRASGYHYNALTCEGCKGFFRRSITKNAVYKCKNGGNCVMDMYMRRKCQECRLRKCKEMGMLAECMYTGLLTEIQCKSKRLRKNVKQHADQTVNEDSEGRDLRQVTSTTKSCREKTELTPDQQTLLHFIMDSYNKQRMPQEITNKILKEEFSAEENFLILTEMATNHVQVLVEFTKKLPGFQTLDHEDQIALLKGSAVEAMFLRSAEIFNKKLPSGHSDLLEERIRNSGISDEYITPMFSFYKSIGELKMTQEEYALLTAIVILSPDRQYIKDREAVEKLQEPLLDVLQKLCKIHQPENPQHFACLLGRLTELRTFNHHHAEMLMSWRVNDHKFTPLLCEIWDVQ
- ASSAY_REMARKS: Antagonist activity at GST-tagged FXR LBD (unknown origin) assessed as inhibition of CDCA-induced Bio-SRC-1 recruitment after 30 mins by HTRF assay
Consider the following compounds and their measured IC50 readings.
MEASUREMENT_NAME: IC50 (µM)

# ENTRY_SMILES, UNITS, RESULT_MODIFIER, REPORTED_RESULT
records = [
    ("CC(C)(C)c1cc(OC(=O)c2ccc([N+](=O)[O-])cc2Cl)ccc1O", "µM", "=", 8.8),
    ("CN(C)c1cc(Cl)c(C(=O)N(C)c2ccc(O)c(C(C)(C)C)c2)c(Cl)c1", "µM", "=", 3.9),
    ("CNc1cc(Cl)c(C(=O)Nc2ccc(O)c(C(C)(C)C)c2)c(Cl)c1", "µM", "=", 13.9),
    ("CC(C)(C)c1cc(OC(=O)c2c(Cl)cc(N)cc2Cl)ccc1O", "µM", "=", 0.6),
    ("CN(C)c1cc(Cl)c(C(=O)N(c2ccc(O)c(C(C)(C)C)c2)C2CCCCC2)c(Cl)c1", "µM", ">", 100),
    ("CC(C)(C)c1cc(NC(=O)c2c(Cl)cc(N3CCNCC3)cc2Cl)ccc1O", "µM", ">", 100),
    ("CC(C)(C)c1cc(OC(=O)c2ccc([N+](=O)[O-])cc2)ccc1O", "µM", "=", 12.7),
    ("CC(C)(C)c1cc(NC(=O)c2c(Cl)cc(NCc3cccs3)cc2Cl)ccc1O", "µM", "=", 8.6),
    ("COc1ccccc1C(=O)Oc1ccc(O)c(C(C)(C)C)c1", "µM", ">", 100),
    ("CC(C)(C)c1cc(OC(=O)c2ccco2)ccc1O", "µM", ">", 100),
]
